system: MS2 coat protein; assay: apparent Kd, MS2 coat protein; higher = weaker binding; RNA-MaP array; FMN 200 µM where present; conditions: designed as: ON switch for flavin mononucleotide; no ligand
Would you kindly list apparent Kd for each of these sequences?
Give bare numbers, in nM.

Known apparent Kd results, listed for orientation:
sequence.record	apparent Kd (nM)
CGGGAAGUCGUAGGAUAUGGUGAUGUACAUGAGGAUCACCCAUGUCCGUCUUCUCUCACAAGAUGCCAGAAGGACGACUUCCGG	766
UUUACAUGAGGAUCACCCAUGUUUAGAAAGAUUGGUUUAGGUGAGGAUAUACAUGAUAAUGAAUUGUAGAAGGCACUGGGUACA	30.1
CUACCUUAUGAGAAGGCGGUCAUGAAACAUGAUCGAGGAUAUCAUGUAAACAUGAGGAUCACCCAUGUAUGGGUAUUAUGGUAA	226

// below: apparent Kd requested for another sequence
Recorded apparent Kd of UGCCGCAACAACGCGGCGUCACAUGAGGAUCACCCAUGUUCACAGGAUAUGCGAUAGCCAACGAAGCAGAAGGGUGAUUACUUA , please. 53.7

----------
Would you kindly list apparent Kd for each of these sequences?
system: MS2 coat protein; assay: apparent Kd, MS2 coat protein; higher = weaker binding; RNA-MaP array; FMN 200 µM where present; conditions: ligand present: flavin mononucleotide; designed as: ON switch for flavin mononucleotide
One number for each entry, in nM.

sequence.record	observed
GUAUUUUUACAGAAGGUGUAUUACAUGAGGAUCACCCAUGUUUUAUGGAAUAAAGAUUUUAUUUACAAGGAUAUGUACUAUUUU	20.6
GGGUACGUUUCGUAGCAGUGUCAUCGAGAAGGCCCUGACAUGAGGAUCACCCAUGUUGUUACAUGGGAGGAUAUCGAUGAUGGG	8.12
GCAUUGAUAACAGGAUAUAUGUUUCCUACAUGAGGAUCACCCAUGUAGGUGAUCAGCCGAGAAAAGUAGAAGGGUUAUCAAUGC	15.4
GCCGAACAUGAGGAUCACCCAUGUCCGGGUAGUCAAGGAUAUGGGAAGGCAAUGCCGUGGCCAGAAGGUGGCUAUC	21.3
UCGAUUAUACAAGGAUAUCAAUUGUAAUUGAGACUUACAUGAGGAUCACCCAUGUUAAUAUUUUUUGAGAAGGUGUAUUUUCAG	26.8

Value sought for every listed sequence: apparent Kd.
1. UUGCCUGCGUGUCGCCGGUUUGGACAGGAUAUCCACAUGAGGAUCACCCAUGUCUAACAAAAUACGGAGAAGGGUCCUAGCGGU
2. GCGUUCUUGUAGAAGGUACAUACAAUAUCUUUUUAACACAUGACACAUGAGGAUCACCCAUGUUGUAAGGAUAUACAUGAACGC
3. CCGAUGGUAUACUAGGAUAUGGGCGCCCUUACAUGAGGAUCACCCAUGUUUACACAAAUCCGCGGCCAGAAGGAGUUCAUGGGAG
4. GACAUACAUGAGGAUCACCCAUGUUCAGGCGGACAAGGAUAUGUGUGGAAACCAUACUAUACAGAAGGUGUCUGUC
5. CGGGAAGUCGUAGGAUAUGGUGAUGUACAUGAGGAUCACCCAUGUCCGUCUUCUCUCACAAGAUGCCAGAAGGACGACUUCCGG
6. GUGCCUUGGGAGAAGGCCCAAUGCAAAGCAUAGGGAGGAUAUCCAUAUAAUAAAUAAACAUGAGGAUCACCCAUGUGGCACAAA

6.55
6.91
133
17.3
103
12
